tested on: Caco-2; assay: cell viability relative to DMSO; higher = less toxic; details: 72 h; 1 nM
Here the recorded cell viability is given for each entry.

compound	cell viability (%)
c1cc2c(c(N3CCNCC3)c1)OCCO2	105
COC(=O)CN1CN(c2ccccc2)C2(CCN(Cc3cccc4ccccc34)CC2)C1=O	102
Cc1ccc(F)c(NC(=O)Nc2ccc(-c3cccc4[nH]nc(N)c34)cc2)c1	101
CCOCc1nc2c(N)nc3ccccc3c2n1CC(C)(C)O	97.7
CCCCc1nc2cc(/C=C/C(=O)NO)ccc2n1CCN(CC)CC	98
NC(=O)C1=CN([C@@H]2O[C@H](COP(=O)(O)OP(=O)(O)OC[C@H]3O[C@@H](n4cnc5c(N)ncnc54)[C@H](O)[C@@H]3O)[C@@H](O)[C@H]2O)C=CC1	103
Cc1oc(=O)oc1CN1CCN(c2cc3c(cc2F)c(=O)c(C(=O)O)c2n3C(C)S2)CC1 (stereo not drawn)	94.8
O=C(NCC1(N2CCN(c3ccccc3)CC2)CCOCC1)c1cccnc1Sc1ccccc1	99.8
